Each recorded value in this set is attributed to patent US10913757B2.

Test system: rat liver mitochondria (RLM)
Assay: Mitochondrial transmembrane electric potential (ΔΨ) of RLM, safranine fluorescence
Format: biochemical
Settings: glutamate/malate; 5 μM
Reported endpoint: Repolarization Potential (ΔΨ in - mV)
Please give a number only; it is taken to be in mV.

Field: example entries. Status: answers known.
COC1=C(OC)C(=O)C(CCCCCCCCCC[P+](c2ccccc2)(c2ccccc2)c2ccccc2)=C(C)C1=O.CS(=O)(=O)[O-] [MitoQ, reference compound] = 185.0
CS(=O)(=O)[O-].O=C(/C=C/c1ccc(O)c(O)c1)NCCCCCCCC[P+](c1ccccc1)(c1ccccc1)c1ccccc1 [AntiOxCIN3] = 235.0
CS(=O)(=O)[O-].O=C(/C=C/c1cc(O)c(O)c(O)c1)NCCCCCC[P+](c1ccccc1)(c1ccccc1)c1ccccc1 [AntiOxCIN4] = 216.1
CS(=O)(=O)[O-].O=C(/C=C/c1cc(O)c(O)c(O)c1)NCCCCCCCC[P+](c1ccccc1)(c1ccccc1)c1ccccc1 [AntiOxCIN5] = 236.5
CS(=O)(=O)[O-].O=C(/C=C/c1ccc(O)c(O)c1)NCCCCCC[P+](c1ccccc1)(c1ccccc1)c1ccccc1 [AntiOxCIN2] = 214.0

Data request: Entry under review: CS(=O)(=O)[O-].O=C(/C=C/c1cc(O)c(O)c(O)c1)NCCCCCCCCCC[P+](c1ccccc1)(c1ccccc1)c1ccccc1 [AntiOxCIN7] . Reported Repolarization Potential (ΔΨ in - mV)?
Data returned: 243.5

Data request: Report Repolarization Potential (ΔΨ in - mV) for CS(=O)(=O)[O-].O=C(/C=C/c1ccc(O)c(O)c1)NCCCCCCCCCC[P+](c1ccccc1)(c1ccccc1)c1ccccc1 [AntiOxCIN6] please.
Data returned: 220.7

* * *

System: rat liver mitochondria (RLM)
Experiment: Mitochondrial respiration of isolated RLM (Clark-type oxygen electrode)
Type: biochemical
Details: succinate; 10 μM
Description: In an embodiment, and as an example, AntiOxCINs and MitoQ toxicity effects on the mitochondrial bioenergetics, namely on RLM ΔΨ and mitochondrial respiration parameters, were measured. […] In addition, the mitochondrial oxidative phosphorylation coupling index, known as respiratory control ratio (RCR, state 3/state 4 respiration) and ADP/O index (the coupling between ATP synthesis and oxygen consumption) were also calculated. […]
Reported endpoint: RCR (respiratory control ratio, state 3/state 4)
Number only, please.

Use these answered entries as a reference point.
CS(=O)(=O)[O-].O=C(/C=C/c1ccc(O)c(O)c1)NCCCCCCCC[P+](c1ccccc1)(c1ccccc1)c1ccccc1 [AntiOxCIN3] = 3.9
CS(=O)(=O)[O-].O=C(/C=C/c1cc(O)c(O)c(O)c1)NCCCCCCCC[P+](c1ccccc1)(c1ccccc1)c1ccccc1 [AntiOxCIN5] = 4.0
CS(=O)(=O)[O-].O=C(/C=C/c1cc(O)c(O)c(O)c1)NCCCCCCCCCC[P+](c1ccccc1)(c1ccccc1)c1ccccc1 [AntiOxCIN7] = 3.7

Data request: GET /values?readout=RCR (respiratory control ratio, state 3/state 4)&item= CS(=O)(=O)[O-].O=C(/C=C/c1ccc(O)c(O)c1)NCCCCCC[P+](c1ccccc1)(c1ccccc1)c1ccccc1 [AntiOxCIN2]
Data returned: 2.1

Data request: Which measured RCR (respiratory control ratio, state 3/state 4) value corresponds to CS(=O)(=O)[O-].O=C(/C=C/c1cc(O)c(O)c(O)c1)NCCCCCC[P+](c1ccccc1)(c1ccccc1)c1ccccc1 [AntiOxCIN4] ?
Data returned: 2.7

Data request: Look at this molecule and give its reported RCR (respiratory control ratio, state 3/state 4). CS(=O)(=O)[O-].O=C(/C=C/c1ccc(O)c(O)c1)NCCCCCCCCCC[P+](c1ccccc1)(c1ccccc1)c1ccccc1 [AntiOxCIN6]
Data returned: 2.6
